Reference for the values: the Human Domainome abundance scans (Beltran et al. 2025)

B1: Chromodomain-helicase-DNA-binding protein 4, residues 365 to 417; numbered along this chain, Q14839 (parent)
chain: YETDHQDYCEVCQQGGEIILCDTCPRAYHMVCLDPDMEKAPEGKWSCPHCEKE

variants of: B1; assay: abundance fitness (aPCA) (normalised: wild type 0, dead -1); higher = more abundant; growth selection in yeast, the domain comes from the species named; conditions: Homo sapiens
Each entry gets False if its abundance fitness stays under -0.2, and True if its abundance fitness is -0.2 or above.

Illustrative cases are given below, each with its answer.
E53T False
H29W False
V31W False

Confirm if abundance fitness reported for the variant S46T is -0.2 or above. True

Please indicate if the recorded abundance fitness for K44N meets or exceeds -0.2. False

Is it the case that S46Q has abundance fitness reaching or exceeding -0.2? True

Check this variant for abundance fitness at or above -0.2: E2T True

Entry H5V : is its abundance fitness no less than -0.2? True

Does C24P have a reported abundance fitness of at least -0.2? False

Is abundance fitness for K52C at or above -0.2? True

abundance fitness >= -0.2 for P48T ? True
